ASSAY ENDPOINT: melting point

{"columns": ["MOLECULE", "melting point"],
 "data": [
  ["NC(=S)c1ncn(C2OC(COS(N)(=O)=O)C(O)C2O)n1 (stereo not given)", "173 to 175 °C"],
  ["CC(=O)OCC(=O)c1ccc(-c2ccccc2)cc1", "109 to 110 °C"],
  ["Cc1c(-c2ccccc2)oc2c(CNCCO)cccc2c1=O", "117 °C"]
]}

*Q* I'd like to know its melting point. The molecule in question is `O=C(c1ccc(F)c(F)c1)N1CCC[C@H](c2nc(-c3ccncc3)no2)C1`
*A* 102 to 106 °C

*Q* Param item: `CC(C)(C)c1noc(-c2ncn3c2[C@@H]2CCCN2C(=O)c2c(Cl)cccc2-3)n1`
*A* 222 to 224 °C

====

Listing of recorded melting point by entry.

Take a look at these entries with their results.
{"columns": ["COMPOUND", "melting point"],
 "data": [
  ["O=C(Nc1ccc(OCc2ccncc2)c2ccccc12)c1cc(F)cc(N2CCCCC2)c1", "69 to 71 °C"],
  ["COC(=O)c1cc(N)c(N2CCCCC2)c(S(C)(=O)=O)c1", "178 to 179 °C"],
  ["CN(C(=O)N(C)c1ccc(C(=O)O)cc1)c1ccc(C(=O)O)cc1", "291 to 292 °C"],
  ["O=C(Nc1ccc(C(F)(F)F)cn1)Oc1ccccc1", "203 °C"],
  ["O=C1CCC2=C1C(c1ccc(Cl)c(F)c1)C1=C(CCS1)N2 (stereo not given)", "> 260 °C"]
]}

*Q* // lookup melting point for `Cc1cc(-c2cc(C(F)(F)F)n3ncc(-c4nc(-c5cnc(N)nc5)no4)c3n2)ccc1Cl`
*A* 272 °C

*Q* Here is the next compound: `COC(=O)c1cn2c(C(F)(F)F)nnc2c2ccccc12`
*A* 170 °C

*Q* Then O=C(O)CCC(=O)C(Cc1ccccc1)NC(=O)c1ccccc1 (stereo not given) ?
*A* 143 to 146 °C

*Q* Proceed to `CCn1ncc2c(OC)c3c(nc21)C(=O)c1ccccc1CC3`
*A* 197 to 200 °C

*Q* Same question, O=C1OC(c2ccc(F)cc2)c2ncccc21 (stereo not given) this time
*A* 116 to 118 °C

====

ASSAY ENDPOINT: melting point

*Q* Can you share its melting point? I mean this compound: CC(C)C(SC(=O)c1ccccc1)C(=O)NCC(=O)O (stereo not given)
*A* 136 to 137 °C

====

ASSAY ENDPOINT: melting point

A selection of reference data follows.
{"columns": ["COMPOUND", "ASSAY ENDPOINT", "VALUE OBSERVED"],
 "data": [
  ["CN1CCN(c2ccc(C(=O)NCCCCCCCCCO[N+](=O)[O-])cn2)CC1", "melting point", "90 to 92 °C"],
  ["CCCCCCCCCc1cc(=O)c2c(O)cc(O)cc2o1", "melting point", "101 °C"],
  ["CCO[C@@H]1[C@@H](OC)[C@H](C)O[C@@H](ON=Cc2ccc(C#Cc3ccc(OC(F)(F)F)cc3)cc2)[C@@H]1OC", "melting point", "82 to 87 °C"],
  ["COc1csc(C=CC(=O)c2ccccc2)c1", "melting point", "104 °C"],
  ["CC1(C)CCC(C)(C)c2cc(-c3cc(-c4ccc(C(=O)O)cc4)ccc3OCCCCO)ccc21", "melting point", "235 °C"],
  ["CCOC(=O)c1ccc(OCCCCCCCCCCCCCCCOc2ccc(Cl)cc2)cc1", "melting point", "84 to 85 °C"],
  ["Brc1cn2c(Br)cnc2c(N2CCOCC2)n1", "melting point", "141 °C"],
  ["O=c1[nH]c2cc(Cl)c(Cl)cc2n1[C@@H]1C[C@H](CO)[C@@H](O)[C@H]1O", "melting point", "219 to 220 °C"]
]}

*Q* Report melting point for `CCC1(CC)NC(C)(C)CN(c2ccccc2)C1=O` please.
*A* 54 to 56 °C

*Q* Follow-up item: `CCCn1nc(-c2ccc(O)c(F)c2)c2cccc(-c3ccccc3)c21`
*A* 177 to 178 °C

*Q* Next record, please: `O=c1cc(-c2ccc(F)cc2)oc(N2CCOCC2)c1`
*A* 216 to 217 °C

*Q* What do we get for CCCCCCC1C(=O)NC(C(=O)SCCNC(C)=O)(C(O)C2C=CCCC2)C1(C)O (stereo not drawn) ?
*A* 82 °C

*Q* `O=C1CC(c2ccc(OCc3ccccc3)cc2)=Nc2ccc(N3CCOCC3)cc21` ?
*A* 320 to 323 °C

*Q* Proceed to `C/C(=N\OCCCOc1ccc(C(=O)O)c(NC(=O)c2ccc(C(F)(F)F)cc2)c1)c1ccccc1`
*A* 174 to 176 °C

*Q* What do we get for O=c1[nH]c2ccccc2n1CCCN1CCN(C(c2ccc(Cl)cc2)c2cccnc2)CC1 (stereo not drawn) ?
*A* 183 °C

*Q* Also need COc1ccc(C(C)C)cc1-c1cc(-c2nnnn2C2CCN(C(=O)OC(C)(C)C)C2)c(O)cc1O (stereo not drawn) , thanks.
*A* 100 to 104 °C

*Q* Similarly, `O=C(N[C@H]1CCN(C(=O)c2cc(C(F)(F)F)cc(C(F)(F)F)c2)[C@H](Cc2ccc(Cl)cc2)C1)c1ccnc2ccccc12` ?
*A* 204 to 207 °C

*Q* Now give it for `O=C(O)Cc1ccc(-n2cc(Cl)cn2)cc1Cl` too.
*A* 152 to 153 °C

*Q* What do we get for `COc1cc(-c2ccc(O)c(C34CC5CC(CC(C5)C3)C4)c2)cc(C=C2SC(N3CCOCC3)=NC2=O)c1O` ?
*A* 310 to 312 °C

*Q* Now give it for `CC(=O)NC[C@H]1CN(c2ccc(-n3nccc3-c3cccc(Br)n3)c(F)c2)C(=O)O1` too.
*A* 90.5 to 92.3 °C

*Q* Record: `FC(F)=C(F)Oc1ccc(C2(c3ccc(OC(F)=C(F)F)cc3)c3ccccc3-c3ccccc32)cc1`
*A* 115 to 116 °C

*Q* Same again, this time with `Cc1cc(Br)c2ncn([C@H](C)[C@](O)(Cn3cncn3)c3ccc(F)cc3F)c(=O)c2c1`
*A* 116 to 123 °C

*Q* Param item: `CCCN1C(=O)N2C[C@@H](Cc3ccccc3)N=C2c2[nH]c(COCc3ccccc3)nc21`
*A* 130 to 132 °C

*Q* Now this one: `CC(C)NC(=O)CCC(=NNC(N)=S)c1ccccc1`
*A* 66 to 71 °C
